Target: T1, mouse EphA2 ectodomain (mouse, UniProt Q03145 26-538)
T1 construct: extracellular domain
T1 sequence (Q03145 26-538): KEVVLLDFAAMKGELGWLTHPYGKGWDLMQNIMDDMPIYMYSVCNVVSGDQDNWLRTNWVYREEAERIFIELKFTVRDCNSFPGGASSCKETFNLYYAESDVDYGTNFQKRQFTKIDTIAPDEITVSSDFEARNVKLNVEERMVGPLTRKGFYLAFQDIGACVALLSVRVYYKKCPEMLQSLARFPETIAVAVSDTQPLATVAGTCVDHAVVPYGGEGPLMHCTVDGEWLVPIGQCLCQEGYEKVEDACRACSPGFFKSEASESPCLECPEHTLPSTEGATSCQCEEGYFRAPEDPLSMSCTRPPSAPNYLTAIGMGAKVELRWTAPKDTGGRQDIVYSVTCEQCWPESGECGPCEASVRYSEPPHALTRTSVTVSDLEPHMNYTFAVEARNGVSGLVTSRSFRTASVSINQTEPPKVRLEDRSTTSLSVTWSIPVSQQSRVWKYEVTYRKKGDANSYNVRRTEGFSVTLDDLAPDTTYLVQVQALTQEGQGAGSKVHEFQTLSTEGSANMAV
Experiment: SPR (Biacore 8k), Fab-capture, 37C, 1:1 model;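 note: Anti-EphA2 IgG captured via immobilized anti-Fab, soluble EphA2 ectodomain as analyte at six twofold dilutions from 50 nM, HBS-EP+ pH 7.6 running buffer, double reference subtraction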
pKd: −log10 of the molar value.
Readout: pKd

[[record]]
binder = "anti-EphA2 E152C S375C 1C1 (LC N92Q) hIgG1 (WT Heavy Chain) (antibody, V domains shown, also called 1C1 N92Q IgG; DE-54-AX20) VH: EVQLLESGGGLVQPGGSLRLSCAASGFTFSHYMMAWVRQAPGKGLEWVSRIGPSGGPTHYADSVKGRFTISRDNSKNTLYLQMNSLRAEDTAVYYCAGYDSGYDYVAVAGPAEYFQHWGQGTLVTVSS VL: DIQMTQSPSSLSASVGDRVTITCRASQSISTWLAWYQQKPGKAPKLLIYKASNLHTGVPSRFSGSGSGTEFSLTISGLQPDDFATYYCQQYQSYSRTFGQGTKVEIKR"
obs_value = 6.41

[[record]]
binder = "anti-EphA2 E152C S375C 1C1 (LC S93A) hIgG1 (WT Heavy Chain) (antibody, V domains shown, also called HD-58-MP05) VH: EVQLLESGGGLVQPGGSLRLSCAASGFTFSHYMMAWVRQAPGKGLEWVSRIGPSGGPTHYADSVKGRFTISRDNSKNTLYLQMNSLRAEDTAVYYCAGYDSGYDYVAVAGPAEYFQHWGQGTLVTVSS VL: DIQMTQSPSSLSASVGDRVTITCRASQSISTWLAWYQQKPGKAPKLLIYKASNLHTGVPSRFSGSGSGTEFSLTISGLQPDDFATYYCQQYNAYSRTFGQGTKVEIKR"
obs_value = 6.46

[[record]]
binder = "anti-EphA2 E152C S375C 1C1 (LC S72T) hIgG1 (WT Heavy Chain) (antibody, V domains shown, also called 1C1 S72T IgG; FE-76-NO13) VH: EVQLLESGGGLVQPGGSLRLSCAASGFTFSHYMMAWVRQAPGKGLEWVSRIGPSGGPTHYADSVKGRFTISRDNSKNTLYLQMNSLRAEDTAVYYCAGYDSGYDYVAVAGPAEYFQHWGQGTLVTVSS VL: DIQMTQSPSSLSASVGDRVTITCRASQSISTWLAWYQQKPGKAPKLLIYKASNLHTGVPSRFSGSGSGTEFTLTISGLQPDDFATYYCQQYNSYSRTFGQGTKVEIKR"
obs_value = 6.42

[[record]]
binder = "anti-EphA2 E152C S375C 1C1 (LC S93Q) hIgG1 (WT Heavy Chain) (antibody, V domains shown, also called DA-62-QP06) VH: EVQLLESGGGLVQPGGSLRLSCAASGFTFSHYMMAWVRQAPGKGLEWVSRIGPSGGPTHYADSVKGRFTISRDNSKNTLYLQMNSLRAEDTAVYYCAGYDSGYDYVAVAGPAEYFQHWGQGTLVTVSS VL: DIQMTQSPSSLSASVGDRVTITCRASQSISTWLAWYQQKPGKAPKLLIYKASNLHTGVPSRFSGSGSGTEFSLTISGLQPDDFATYYCQQYNQYSRTFGQGTKVEIKR"
obs_value = 6.47

[[record]]
binder = "anti-EphA2 E152C S375C 1C1 (LC S93V) hIgG1 (WT Heavy Chain) (antibody, V domains shown, also called PA-62-QD06) VH: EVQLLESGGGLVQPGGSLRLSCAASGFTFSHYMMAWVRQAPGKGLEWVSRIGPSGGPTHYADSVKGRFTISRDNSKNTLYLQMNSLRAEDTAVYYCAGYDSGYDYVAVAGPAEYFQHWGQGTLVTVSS VL: DIQMTQSPSSLSASVGDRVTITCRASQSISTWLAWYQQKPGKAPKLLIYKASNLHTGVPSRFSGSGSGTEFSLTISGLQPDDFATYYCQQYNVYSRTFGQGTKVEIKR"
obs_value = 6.54

[[record]]
binder = "anti-EphA2 E152C S375C 1C1 (LC G77S) hIgG1 (WT Heavy Chain) (antibody, V domains shown, also called 1C1 G77S IgG; ZF-74-CQ11) VH: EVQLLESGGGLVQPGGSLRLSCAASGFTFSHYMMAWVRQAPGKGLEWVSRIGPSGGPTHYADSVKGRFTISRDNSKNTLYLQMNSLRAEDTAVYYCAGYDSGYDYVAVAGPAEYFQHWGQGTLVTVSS VL: DIQMTQSPSSLSASVGDRVTITCRASQSISTWLAWYQQKPGKAPKLLIYKASNLHTGVPSRFSGSGSGTEFSLTISSLQPDDFATYYCQQYNSYSRTFGQGTKVEIKR"
obs_value = 6.43

